IC50 values, listed per item
- System: GM-CSF induced STAT5 phosphorylation mediated by the JAK2/JAK2 homdimeric complex
- method: GM-CSF Induced pSTAT5 in Human PBMC
- condition.summary: Homo sapiens, PBMC, 20 min, read-out: PBMC_GMCSF_pSTAT5 IC50, human PBMC; GM-CSF 5 ng/mL for 20 minutes; pSTAT5

{"compound": "CNc1cc(Nc2cccn(-c3cccc(C(C)(C)O)n3)c2=O)nc2c(C(=O)N[C@H]3C[C@H]3F)cnn12", "IC50": "> 50 µM"}
{"compound": "CNc1cc(Nc2cccn(-c3cc(C)n(C)n3)c2=O)nc2c(C(=O)NC3CCC3)cnn12", "IC50": "> 2.5 µM"}
{"compound": "CNc1cc(Nc2cccnc2OC2CC2)nc2c(C(=O)NC3CCC3O)cnn12 (stereo in doubt) [I-366]", "IC50": "> 50 µM"}

Data request: Lab note: need IC50 with GM-CSF induced STAT5 phosphorylation mediated by the JAK2/JAK2 homdimeric complex for entry CNc1cc(Nc2cccc(N3CCOC3=O)n2)nc2c(C(=O)NC3CCC3)cnn12 , please look it up.
Data returned: > 12.5 µM

----------
- Tested on: GM-CSF induced STAT5 phosphorylation mediated by the JAK2/JAK2 homdimeric complex
- method: GM-CSF Induced pSTAT5 in Human PBMC
- condition.summary: Homo sapiens, PBMC, 20 min, read-out: PBMC_GMCSF_pSTAT5 IC50, human PBMC; GM-CSF 5 ng/mL for 20 minutes; pSTAT5
pIC50: −log10 of the molar value.
metric: pIC50

Below: 5 compounds and their reported pIC50.
{"compound": "CNc1cc(Nc2cccnc2OC)nc2c(C(=O)NC[C@H](C)CO)cnn12", "target.under.test": "GM-CSF induced STAT5 phosphorylation mediated by the JAK2/JAK2 homdimeric complex", "pIC50": "< 4.30"}
{"compound": "CNc1cc(Nc2cccn(-c3cnn(C)c3)c2=O)nc2c(C(=O)NC3CC3)cnn12", "target.under.test": "GM-CSF induced STAT5 phosphorylation mediated by the JAK2/JAK2 homdimeric complex", "pIC50": "< 4.30"}
{"compound": "CNc1cc(Nc2cccn(C3CCOCC3)c2=O)nc2c(C(=O)NC3CC3)cnn12", "target.under.test": "GM-CSF induced STAT5 phosphorylation mediated by the JAK2/JAK2 homdimeric complex", "pIC50": "< 5.60"}
{"compound": "CNc1cc(Nc2cccnc2OC2CC2)nc2c(C(=O)NCC(C)(C)CO)cnn12", "target.under.test": "GM-CSF induced STAT5 phosphorylation mediated by the JAK2/JAK2 homdimeric complex", "pIC50": "< 4.30"}
{"compound": "CNc1cc(Nc2cccnc2OC(F)F)nc2c(C(=O)NC3CC3)cnn12", "target.under.test": "GM-CSF induced STAT5 phosphorylation mediated by the JAK2/JAK2 homdimeric complex", "pIC50": "< 4.90"}

Data request: Look up pIC50 for this compound: CNC(=O)c1nscc1Nc1cc(NC)n2ncc(C(=O)N[C@@H]3C[C@@H]3F)c2n1
Data returned: < 4.30

Data request: Look up pIC50 for this compound: [2H]C([2H])([2H])Oc1ncccc1Nc1cc(NC)n2ncc(C(=O)N[C@H]3C[C@H]3F)c2n1
Data returned: < 4.90

Data request: Look up pIC50 for this compound: CNc1cc(Nc2cccn(-c3cc(C)nn3C)c2=O)nc2c(C(=O)NC3CCC3)cnn12
Data returned: < 4.90

Data request: Look up pIC50 for this compound: CNc1cc(Nc2cccc(N3CCCC3=O)n2)nc2c(C(N)=O)cnn12
Data returned: < 6.52
